B1: TRIB1 (parent)
chain: SYVRSRKRLREEEAARLFKQIVSA

Variants of: B1
Assay remarks: protein stability index of a GFP-peptide fusion (GPS, HEK-293T) (PSI 1-6); higher = more stable;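 further: lentivirally expressed fusions sorted by FACS into six bins by GFP to DsRed ratio, PSI derived from sequencing read proportions per bin multiplied by bin number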
Test conditions: c terminus: a fixed tail appended
Experimental readout: protein stability index

# Variant, Measured number
rows = [
    ("Q20F", 1.61),
    ("K7S", 2.53),
    ("R4Y", 2.11),
    ("Q20S", 2.27),
    ("E12T", 2.03),
    ("S1E", 1.5),
    ("R8W", 1.95),
    ("R8H", 1.96),
    ("R6L", 1.85),
    ("R6K", 2.63),
    ("R16A", 1.9),
]
